These entries and their values trace back to PubChem BioAssay AID1159580.

Kindly state normalized growth for each of the entries shown.
test description: chemical genetic growth profiling, strain panel (AID 1159580);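 further: tested at 20 µM; growth read once vehicle control cultures reached saturation at 30 °C; 1 = growth at the plate median or of vehicle wells; lower values mean less growth of the strain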
reported conditions: S. cerevisiae deletion strains, growth OD, locus YPL241C, strain CIN2, active compounds read low
Screen size: about 5,500 compounds; about 2,000 (36%) were called active. Another 18% or so got no clear call; they are omitted. Some of the results follow.
Numbers only.

Batch of 3 compounds: report normalized growth for each.
1. N#CCC(=O)N(Cc1ccccc1F)C(=O)NC1CCCCC1
2. O=C1NS(=O)(=O)c2ccccc21
3. CC(C)N1C(=O)c2ccccc2NS1(=O)=O

**A:**
0.994
1
0.999

====

test description: chemical genetic growth profiling, strain panel (AID 1159580);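 further: tested at 20 µM; growth read once vehicle control cultures reached saturation at 30 °C; 1 = growth at the plate median or of vehicle wells; lower values mean less growth of the strain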
reported conditions: S. cerevisiae deletion strains, growth OD, locus YER016W, strain bim1, active compounds read low
Hit rate of the full screen: of about 5,500 compounds, about 2,000 (36%) were called active. Roughly 18% stayed inconclusive and do not appear here. The list shows a part of the results.
readout kind: normalized growth

Sample records with normalized growth:
{"compound": "O=c1c(O)c(-c2ccccc2)oc2ccccc12", "normalized growth": "0.81 (active)"}
{"compound": "CC(C)[C@@H]1CC[C@@H](C)C[C@H]1OC(=O)c1ccccc1", "normalized growth": "0.999 (inactive)"}
{"compound": "O=C(O)C1=C(CSc2nnnn2CS(=O)(=O)O)CS[C@@H]2C(NC(=O)[C@H](O)c3ccccc3)C(=O)N12 (stereo partly specified)", "normalized growth": "0.978 (inactive)"}
{"compound": "O=C1C=CC(=O)c2c(O)c(Cl)c(Cl)c(O)c21", "normalized growth": "0.0673 (active)"}
{"compound": "COC(=O)CC1C(C)(C(=O)c2ccoc2)CC2OCC34C(CC(=O)OC)C5(C)CC36OC3(C)OC1(C(OC(C)=O)C6(OC(C)=O)C5OC(=O)C(C)C)C24O3 (stereo unspecified)", "normalized growth": "0.98 (inactive)"}

Okay, now this compound:
# compound "O=C(CCc1ccc(O)cc1)c1c(O)cc(O)cc1O" ; its normalized growth = 1.01 (inactive)

====

test description: chemical genetic growth profiling, strain panel (AID 1159580);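 further: tested at 20 µM; growth read once vehicle control cultures reached saturation at 30 °C; 1 = growth at the plate median or of vehicle wells; lower values mean less growth of the strain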
reported conditions: S. cerevisiae deletion strains, growth OD, locus YKR001C, strain vps1, active compounds read low
Out of some 5,500 compounds screened, about 2,000 (36%) were called active. Not shown: some 18% with an inconclusive outcome. The list shows a part of the results.
readout kind: normalized growth
Give bare numbers.

Worked set:
{"smiles representation": "CCCN(CCC)c1c([N+](=O)[O-])cc(C(F)(F)F)cc1[N+](=O)[O-]", "number": 1.03}
{"smiles representation": "CN1CCN(C2=Nc3cc(Cl)ccc3Nc3ccccc32)CC1", "number": 1.03}

For the next question, use this molecule.
The recorded normalized growth for "NS(=O)(=O)c1cc2c(cc1Cl)NCNS2(=O)=O" is 1.01

====

Field: normalized growth. Provide a value for each of the compounds that follow.
test description: chemical genetic growth profiling, strain panel (AID 1159580);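 further: tested at 20 µM; growth read once vehicle control cultures reached saturation at 30 °C; 1 = growth at the plate median or of vehicle wells; lower values mean less growth of the strain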
reported conditions: S. cerevisiae deletion strains, growth OD, locus YNL298W, strain CLA4 (second series), active compounds read low
Screen size: about 5,500 compounds; about 2,000 (36%) were called active. Not shown: some 18% with an inconclusive outcome. This is one part of the list.
One number for each entry.

Here's what some known entries look like.
{"compound": "CCOC(=O)c1c[nH]c2c(F)cccc2c1=O", "number": 0.981}
{"compound": "Cc1cc(S(=O)(=O)NC(Cc2ccc([N+](=O)[O-])cc2)C(=O)O)c(Cl)cc1Cl (stereo unspecified)", "number": 1.01}
{"compound": "COc1ccccc1N1CC(C)(C)C(=O)N(C(=O)c2c(F)cccc2Cl)C1=S", "number": 1.01}
{"compound": "Cc1cc2c(cc1C)CSC(C)(c1ccc(F)cc1)SC2", "number": 0.975}
{"compound": "Cc1noc(C)c1C(=O)N1CCOCC1", "number": 1.02}

We next turn to a different compound, shown below.
Just so you know, measured normalized growth for "N#CCC(=O)N(Cc1ccccc1F)C(=O)NC1CCCCC1" came out at 1.01
